- System: HOS
- EXPERIMENT DESCRIPTION: In vitro cytotoxicity evaluated against human bone carcinoma (HOS cell line)
- Format: functional
- TEST SETTINGS: read-out: ED50 (the source's name)
QUANTITY NAME: EC50

>>> value_measured("COC(=O)Cc1cccc2c(O)cc(-c3ccccc3)nc12")
"> 20 µg/mL"
>>> value_measured("O=C(O)Cc1ccc2nc(-c3ccccc3F)cc(O)c2c1")
"> 20 µg/mL"
>>> value_measured("COC(=O)Cc1cccc2c(O)cc(-c3ccccc3F)nc12")
"> 10 µg/mL"
